For each entry below, report its protein stability index value.
B1: TRAF3IP2 (parent)
chain: PRPPSNPPARGTLKTSNLPEELRK

- Variants of: B1
- ASSAY_SUMMARY: protein stability index of a GFP-peptide fusion (GPS, HEK-293T) (PSI 1-6); higher = more stable;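 further: lentivirally expressed fusions sorted by FACS into six bins by GFP to DsRed ratio, PSI derived from sequencing read proportions per bin multiplied by bin number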
- CONDITION: c terminus: a fixed tail appended
Numbers only.

> print(dat)
    var  experimental.result
1  N17L                 4.49
2  N17V                 3.94
3   P8I                 4.72
4   P3I                 5.05
5   A9I                 4.65

The following variants each have a reported value; give each one's protein stability index.
1. E21C
2. L18N
3. P1G
4. P1L
5. P7C
6. E21Q

4.19
4.71
4.89
4.67
4.4
5.04

Source listed as the supplement of paper PMC10567573.
